# target-entity: bovine thrombin (Bos taurus, UniProt P00735)
# assay-summary: Antithrombin activity: inhibition of fibrin formation from fibrinogen
# Type: biochemical
# Experimental: (i) Determination of inhibition activity against fibrin formation An inhibitor sample is dissolved in a 0.l8 M borate-physiological salt buffer solution (pH = 7.4) to bring the total volume to 500 µl. […] Thus, a coagulation time is determined. The inhibitor concentration I₅₀ (µmol), at which the coagulation time obtained in the absence of the inhibitor is extended twice, is determined.
parameter-measured: IC50

Reference set, count: 3
| compound | target-entity | parameter-measured | result |
| --- | --- | --- | --- |
| CC1CCC(NC(=O)[C@H](Cc2ccccc2)NC(=O)c2ccc(NC(=N)N)cc2)CC1C (stereo partly shown) | bovine thrombin (Bos taurus, UniProt P00735) | IC50 | > 100 µM |
| NCCCCC(=O)N[C@@H](Cc1ccccc1)C(=O)Nc1ccc(C(=O)c2ccccc2)cc1 | bovine thrombin (Bos taurus, UniProt P00735) | IC50 | > 100 µM |
| CCOC(=O)CC(O)CNC(=O)[C@H](Cc1ccccc1)NC(=O)CCCCN (stereo partly shown) | bovine thrombin (Bos taurus, UniProt P00735) | IC50 | > 1000 µM |

Form field: IC50 recorded for "COC(=O)[C@@H]1CCCN1C(=O)[C@H](Cc1ccccc1)NC(=O)c1ccc(NC(=N)N)cc1" with bovine thrombin (Bos taurus, UniProt P00735) (enter value)
> 1000 µM

bovine thrombin (Bos taurus, UniProt P00735) / IC50 / "CC(=O)c1ccc(NC(=O)[C@H](Cc2ccccc2)NC(=O)c2ccc(NC(=N)N)cc2)cc1" : value?
> 500 µM

Param readout = IC50; param system = bovine thrombin (Bos taurus, UniProt P00735); param query = "COc1ccc(NC(=O)[C@H](Cc2ccccc2)NC(=O)c2ccc(NC(=N)N)cc2)cn1" ; response: value
> 1000 µM

Provide the documented IC50 with bovine thrombin (Bos taurus, UniProt P00735) as the system for CCOC(=O)CC(O)CNC(=O)[C@H](Cc1ccccc1)NC(=O)CCCCCN (stereo partly shown)
> 500 µM

Could you share what IC50 was measured for "CN(Cc1ccncc1)C(=O)[C@H](Cc1ccccc1)NC(=O)c1ccc(NC(=N)N)cc1" , tested on bovine thrombin (Bos taurus, UniProt P00735)?
> 1000 µM

Give recorded IC50 with bovine thrombin (Bos taurus, UniProt P00735) for the following compound: "COc1ccc(NC(=O)[C@H](Cc2ccc(OCc3ccccc3)cc2)NC(=O)c2ccc(NC(=N)N)cc2)cn1"
> 100 µM

I'm curious: which IC50 was measured for "NCCCCCC(=O)N[C@@H](Cc1ccc(O)cc1)C(=O)Nc1ccc(C(=O)c2ccccc2)cc1" tested on bovine thrombin (Bos taurus, UniProt P00735)?
> 120 µM

====

# target-entity: human plasma kallikrein (Homo sapiens)
# Sequence (P03952 391-638 limits assumed): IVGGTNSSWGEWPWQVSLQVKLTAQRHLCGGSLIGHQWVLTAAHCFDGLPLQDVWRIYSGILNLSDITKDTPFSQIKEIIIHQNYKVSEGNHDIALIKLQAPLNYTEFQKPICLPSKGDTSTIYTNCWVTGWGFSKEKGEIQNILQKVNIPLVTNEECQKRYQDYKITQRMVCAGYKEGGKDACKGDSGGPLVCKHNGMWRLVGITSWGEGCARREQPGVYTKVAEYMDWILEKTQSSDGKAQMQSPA
# Sequence (P03952 20-390 partner limits assumed): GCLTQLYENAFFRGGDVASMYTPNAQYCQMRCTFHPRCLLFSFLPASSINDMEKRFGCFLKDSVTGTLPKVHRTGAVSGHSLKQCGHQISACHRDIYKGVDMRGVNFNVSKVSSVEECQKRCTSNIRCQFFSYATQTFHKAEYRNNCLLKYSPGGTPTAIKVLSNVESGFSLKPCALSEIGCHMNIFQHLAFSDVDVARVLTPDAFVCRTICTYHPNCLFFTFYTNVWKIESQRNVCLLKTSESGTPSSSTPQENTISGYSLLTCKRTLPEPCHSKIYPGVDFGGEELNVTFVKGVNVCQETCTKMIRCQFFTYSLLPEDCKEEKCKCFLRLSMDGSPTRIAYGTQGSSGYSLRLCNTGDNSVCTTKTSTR
# assay-summary: Anti-plasma kallikrein activity: inhibition of S-2302 decomposition
# test-conditions: Table 2; substrate S-2302, pH 7.8, 37°C; read-out: Plasma Kallikrein S-2302 (concentration I₅₀)
pIC50: −log10 of the molar value. Where a name gives a salt, the structure may show the parent alone.
parameter-measured: pIC50

| molecule | target-entity | pIC50 |
| --- | --- | --- |
| Cc1ccc(NC(=O)[C@H](Cc2ccc(OCc3ccccc3)cc2)NC(=O)c2ccc(NC(=N)N)cc2)cc1C | human plasma kallikrein (Homo sapiens) | 5.24 |

I. CN(Cc1ccccc1)C(=O)[C@H](Cc1ccc(OCc2ccccc2)cc1)NC(=O)c1ccc(NC(=N)N)cc1
II. COc1ccc(NC(=O)[C@H](Cc2ccccc2)NC(=O)c2ccc(CCN)cc2)cn1 [compound 10, dihydrochloride]
III. CC(=O)c1ccc(NC(=O)[C@H](Cc2ccc(OCc3ccccc3)cc2)NC(=O)c2ccc(C(=N)N)cc2)cc1
Could you please sort these 3 entries by pIC50 from high to low? Return the labels ranked in the requested order, please.
III, II, I

====

# pIC50 per record follows
# target-entity: bovine thrombin (Bos taurus)
# assay-summary: Antithrombin activity: inhibition of S-2238 decomposition
# Assay type: biochemical
pIC50: −log10 of the molar value. Counter-ions that a name gives are not always drawn.

# annotated cases, reported pIC50 shown
| molecule | result |
| --- | --- |
| CCOC(=O)CC(O)CNC(=O)[C@H](Cc1ccccc1)NC(=O)CCCCCN (stereo partly shown) [compound 5] | < 3.30 |
| CC(=O)c1ccc(NC(=O)[C@H](Cc2ccccc2)NC(=O)c2ccc(NC(=N)N)cc2)cc1 [compound 15] | 3.48 |
| CN(Cc1ccncc1)C(=O)[C@H](Cc1ccccc1)NC(=O)CCCCCN [Compound No. 6, dihydrochloride] | < 3.30 |
| NCCCCCC(=O)N[C@@H](Cc1ccc(O)cc1)C(=O)Nc1ccc(C(=O)c2ccccc2)cc1 [compound 7] | < 3.74 |
| NCCCCC(=O)N[C@@H](Cc1ccccc1)C(=O)Nc1ccc(C(=O)c2ccccc2)cc1 [Compound No. 2] | < 3.70 |

Please look up its pIC50: CCOC(=O)CC(O)CNC(=O)[C@H](Cc1ccccc1)NC(=O)CCCCN (stereo partly shown) [Compound No. 3]
< 3.00

Value lookup for pIC50; key = NCCCC(=O)N[C@@H](Cc1ccccc1)C(=O)Nc1ccc(C(=O)c2ccccc2)cc1 [compound 1]
< 3.70

Dear colleague, I am looking for the recorded pIC50 of the following molecule: CC1CCC(NC(=O)[C@H](Cc2ccccc2)NC(=O)c2ccc(NC(=N)N)cc2)CC1C (stereo partly shown) [compound 21]
3.40

# query: pIC50 of entry COC(=O)[C@@H]1CCCN1C(=O)[C@H](Cc1ccccc1)NC(=O)c1ccc(NC(=N)N)cc1 [compound 22]
< 3.00

Data request, read-out pIC50, for COc1ccc(NC(=O)[C@H](Cc2ccccc2)NC(=O)c2ccc(NC(=N)N)cc2)cn1 [compound 18]
< 3.00

====

# target-entity: UniProt:P00747
# assay-summary: Antiplasmin activity: inhibition of S-2251 decomposition
# Format: biochemical
# test-conditions: Table 2; substrate S-2251, pH 7.4, 37°C; read-out: Plasmin S-2251 (concentration I₅₀)
pIC50: −log10 of the molar value. Where a name gives a salt, the structure may show the parent alone.
parameter-measured: pIC50

| molecule | pIC50 |
| --- | --- |
| COc1ccc(NC(=O)[C@H](Cc2ccccc2)NC(=O)c2ccc(CCN)cc2)cn1 [compound 10, dihydrochloride] | 3.08 |

a. NCCCCCC(=O)N[C@@H](Cc1ccccc1)C(=O)Nc1ccc(C(=O)c2ccccc2)cc1 [compound 4]
b. N=C(N)Nc1ccc(C(=O)N[C@@H](Cc2ccc([N+](=O)[O-])cc2)C(=O)Nc2ccc(C(=O)c3ccccc3)cc2)cc1 [Compound No. 23]
Which entry shows the lesser value of pIC50 here, a or b ? Record your answer as the label of the chosen record.
b
(b: 4.05, a: 4.41)

a. CN(Cc1ccccc1)C(=O)[C@H](Cc1ccc(OCc2ccccc2)cc1)NC(=O)c1ccc(NC(=N)N)cc1 [compound 28]
b. CC(=O)c1ccc(NC(=O)[C@H](Cc2ccccc2)NC(=O)c2ccc(C(=N)N)cc2)cc1 [compound 11]
c. CC1CCC(NC(=O)[C@H](Cc2ccccc2)NC(=O)c2ccc(NC(=N)N)cc2)CC1C (stereo partly drawn) [compound 21]
Put the entries in order of pIC50, starting with the largest number. Provide the labels, sequenced as the question asks.
b, a, c
(b: 4.64, a: 3.85, c: 3.35)

P. N=C(N)NCCCC(=O)N[C@@H](Cc1ccc([N+](=O)[O-])cc1)C(=O)Nc1ccc(C(=O)c2ccccc2)cc1 [compound 29]
Q. NCCc1ccc(C(=O)N[C@@H](Cc2ccccc2)C(=O)Nc2ccc(C(=O)c3ccccc3)cc2)cc1 [compound 9]
Select the item whose pIC50 value is smaller, choosing between P and Q . Choose, then provide that item's label.
P
(P: 3.92, Q: 4.52)

====

# target-entity: human plasmin (Homo sapiens, UniProt P00747)
# Sequence (P00747 581-810 limits assumed): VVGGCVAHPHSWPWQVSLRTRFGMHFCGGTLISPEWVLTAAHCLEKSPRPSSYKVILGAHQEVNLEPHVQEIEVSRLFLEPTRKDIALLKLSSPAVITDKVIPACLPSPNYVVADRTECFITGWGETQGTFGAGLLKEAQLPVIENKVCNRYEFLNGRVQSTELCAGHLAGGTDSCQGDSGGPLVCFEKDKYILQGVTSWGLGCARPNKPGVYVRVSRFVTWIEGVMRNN
# Sequence (P00747 97-580 partner limits assumed): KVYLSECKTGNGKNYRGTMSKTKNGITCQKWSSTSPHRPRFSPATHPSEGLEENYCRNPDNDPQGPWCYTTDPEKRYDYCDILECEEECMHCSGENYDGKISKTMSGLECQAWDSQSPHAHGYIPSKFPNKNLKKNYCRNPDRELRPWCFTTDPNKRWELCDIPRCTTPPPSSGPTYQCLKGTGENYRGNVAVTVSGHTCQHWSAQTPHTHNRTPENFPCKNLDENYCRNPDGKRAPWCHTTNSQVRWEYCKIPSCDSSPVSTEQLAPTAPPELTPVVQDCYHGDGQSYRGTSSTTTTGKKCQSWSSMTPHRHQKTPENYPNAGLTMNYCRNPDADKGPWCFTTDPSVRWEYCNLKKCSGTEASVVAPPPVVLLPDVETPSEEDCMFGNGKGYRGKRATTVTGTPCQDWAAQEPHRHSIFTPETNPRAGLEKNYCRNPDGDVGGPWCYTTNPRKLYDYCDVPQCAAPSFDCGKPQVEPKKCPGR
# assay-summary: Antiplasmin activity: inhibition of fibrin decomposition
# Type: biochemical
# test-conditions: Table 2; concentration at which fibrin dissolution time is extended twice, pH 7.4, 37°C; read-out: Plasmin Fibrin (concentration I₅₀)
Where a name gives a salt, the structure may show the parent alone.
parameter-measured: IC50 (µM)

| compound | target-entity | IC50 (µM) |
| --- | --- | --- |
| CC(=O)c1ccc(NC(=O)[C@H](Cc2ccccc2)NC(=O)c2ccc(C(=N)N)cc2)cc1 | human plasmin (Homo sapiens, UniProt P00747) | 21 |

A. Cc1ccc(NC(=O)[C@H](Cc2ccc(OCc3ccccc3)cc2)NC(=O)c2ccc(NC(=N)N)cc2)cc1C
B. CC(=O)c1ccc(NC(=O)[C@H](Cc2ccc(OCc3ccccc3)cc2)NC(=O)c2ccc(C(=N)N)cc2)cc1
C. COc1ccc(NC(=O)[C@H](Cc2ccccc2)NC(=O)c2ccc(CCN)cc2)cn1 [compound 10, dihydrochloride]
Order these by IC50, descending, and give the full ranking. Answer format: the labels, ordered as requested.
C, A, B
(C: 970 µM, A: 16 µM, B: 0.98 µM)

Where do these numbers come from? They come from patent EP0298135A1.
